Data provenance is ChEMBL document CHEMBL1128179.

- tested on: Tissue-type plasminogen activator (Homo sapiens, UniProt P00750)
- Sequence (P00750 whole entry): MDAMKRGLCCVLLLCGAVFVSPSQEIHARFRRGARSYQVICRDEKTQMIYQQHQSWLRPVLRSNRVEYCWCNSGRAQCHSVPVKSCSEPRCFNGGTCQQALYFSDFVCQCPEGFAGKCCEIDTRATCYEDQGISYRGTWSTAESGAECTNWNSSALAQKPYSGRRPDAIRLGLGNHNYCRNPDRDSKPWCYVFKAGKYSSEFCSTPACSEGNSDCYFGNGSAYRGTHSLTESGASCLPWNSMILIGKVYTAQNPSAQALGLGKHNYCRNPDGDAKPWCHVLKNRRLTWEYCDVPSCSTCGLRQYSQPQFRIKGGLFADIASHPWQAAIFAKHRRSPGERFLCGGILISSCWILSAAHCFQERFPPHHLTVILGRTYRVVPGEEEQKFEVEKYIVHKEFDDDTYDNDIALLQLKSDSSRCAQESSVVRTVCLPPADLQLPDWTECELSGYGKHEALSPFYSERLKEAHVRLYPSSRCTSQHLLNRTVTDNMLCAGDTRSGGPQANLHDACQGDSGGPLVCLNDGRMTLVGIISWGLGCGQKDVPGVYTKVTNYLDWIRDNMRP
Square brackets hold non-standard residues; d marks the D form. Peptide text beside a SMILES is read from it. Tic = O=C(O)[C@@H]1Cc2ccccc2CN1
Catalogue of compounds with associated IC50
endpoint label: IC50 (µM)

- compound: "C[C@](NC(=O)C(F)(F)F)(C(=O)N1CCC[C@H]1C(=O)N[C@H](C=O)CCCN=C(N)N)c1ccccc1"
  censoring qualifier: ">"
  result value: 30000
- compound: "N=C(N)NCCC[C@@H](C=O)NC(=O)[C@@H]1CCCN1C(=O)[C@@H]1NCC[C@@H]2CCCC[C@@H]21"
  censoring qualifier: "="
  result value: 34
- compound: "CC(C)(C)OC(=O)N[C@@H](C(=O)N1CC[C@H]1C(=O)N[C@H](C=O)CCCN=C(N)N)c1ccccc1"
  censoring qualifier: "="
  result value: 6.6
- compound: "N=C(N)NCCC[C@@H](C=O)NC(=O)[C@@H]1CCCN1C(=O)[C@@H]1Cc2ccccc2CN1 (H-[Tic]-Pro-Arg-aldehyde)"
  censoring qualifier: "="
  result value: 430

====

- assay info: Ratio of IC50 towards Tissue Plasminogen activator to thrombin
Square brackets hold non-standard residues; d marks the D form. Peptide text beside a SMILES is read from it. * marks the point of attachment. dPhg = N[C@@H](C(=O)O)c1ccccc1; Boc = CC(C)(C)OC(=O)*

- molecule: "CC(C)(C)OC(=O)N[C@@](C)(C(=O)N1CC[C@H]1C(=O)N[C@H](C=O)CCCN=C(N)N)c1ccccc1"
  censoring qualifier: "="
  Selectivity: 5500
- molecule: "CN[C@@H](Cc1ccccc1)C(=O)N1CCC[C@H]1C(=O)N[C@](C)(C=O)CCCN=C(N)N"
  censoring qualifier: ">"
  Selectivity: 30000
- molecule: "CC(C)(C)OC(=O)N[C@H](Cc1ccccc1)C(=O)N1CCC[C@H]1C(=O)N[C@H](C=O)CCCN=C(N)N"
  censoring qualifier: "="
  Selectivity: 20
- molecule: "CN[C@H](Cc1ccccc1)C(=O)N1CCC[C@H]1C(=O)N[C@H](C=O)CCCNC(=N)N"
  censoring qualifier: "="
  Selectivity: 2400
- molecule: "CC(C)(C)OC(=O)N[C@@H](C(=O)N1CCC[C@H]1C(=O)N[C@H](C=O)CCCN=C(N)N)c1ccccc1 (Boc-[dPhg]-Pro-Arg-aldehyde)"
  censoring qualifier: "="
  Selectivity: 540
- molecule: "N=C(N)NCCC[C@@H](C=O)NC(=O)[C@@H]1CCCN1C(=O)[C@@H]1C[C@@H]2CCCC[C@@H]2CN1"
  censoring qualifier: "="
  Selectivity: 650
- molecule: "C[C@](NC(=O)C(F)(F)F)(C(=O)N1CCC[C@H]1C(=O)N[C@H](C=O)CCCN=C(N)N)c1ccccc1"
  censoring qualifier: ">"
  Selectivity: 50000

====

Square brackets hold non-standard residues; d marks the D form. Peptide text beside a SMILES is read from it. * marks the point of attachment. dPhg = N[C@@H](C(=O)O)c1ccccc1; Boc = CC(C)(C)OC(=O)*
These molecules were tested on Coagulation factor X (Bos taurus, UniProt P00743); IC50 is the recorded read-out.
Sequence (P00743 41-180 limits assumed): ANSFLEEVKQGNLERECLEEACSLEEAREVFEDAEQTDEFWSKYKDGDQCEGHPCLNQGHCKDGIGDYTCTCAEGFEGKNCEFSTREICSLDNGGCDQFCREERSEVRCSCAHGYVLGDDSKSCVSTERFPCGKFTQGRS
Sequence (P00743 234-492 limits assumed): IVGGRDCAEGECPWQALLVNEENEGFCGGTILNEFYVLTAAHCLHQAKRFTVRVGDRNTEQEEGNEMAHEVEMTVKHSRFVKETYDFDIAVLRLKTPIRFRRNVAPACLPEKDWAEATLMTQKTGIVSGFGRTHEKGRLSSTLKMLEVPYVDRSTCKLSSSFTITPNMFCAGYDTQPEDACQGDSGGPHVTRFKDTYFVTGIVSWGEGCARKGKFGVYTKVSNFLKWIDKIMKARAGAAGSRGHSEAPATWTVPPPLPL
endpoint label: IC50

- molecule: "CC(C)(C)OC(=O)N[C@H](Cc1ccccc1)C(=O)N1CC[C@H]1C(=O)N[C@H](C=O)CCCNC(=N)N"
  endpoint label: "IC50"
  result value: "1300 nM"
- molecule: "N=C(N)NCCC[C@@H](C=O)NC(=O)[C@@H]1CCCN1C(=O)[C@@H]1C[C@@H]2CCCC[C@@H]2CN1"
  endpoint label: "IC50"
  result value: "3300 nM"
- molecule: "CC(C)(C)OC(=O)N[C@@H](C(=O)N1CCC[C@H]1C(=O)N[C@H](C=O)CCCN=C(N)N)c1ccccc1 (Boc-[dPhg]-Pro-Arg-aldehyde)"
  endpoint label: "IC50"
  result value: "260 nM"
